method: Cell Viability - Renal Proximal Tubule (AID 545);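 note: cells exposed to compound for 40 hours; nearly all actives have a fitted effect of over 40% in size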
experimental.parameters: renal proximal tubule cells viability, primary cells of rat origin
Results filed as inconclusive are left out. Calls of active or inactive are those of the source. Calls come from the whole dose curve; as a rule, active = well fitted cell-killing curve with a large enough effect; inconclusive = small, poorly fitted or top-dose-only effect; inactive = flat fitted curve, though single readings scatter.
Would you mind answering with one of these outcomes? active, inactive

Challenge: Could you please tell me the result logged for `Nc1cccc2c(N)cccc12` in this assay?
Response given: inactive

Challenge: Could you please tell me the result logged for C1=CC2C3C=CC(C3)C2C1 (stereo not given) in this assay?
Response given: inactive

Challenge: Could you please tell me the result logged for `CCCC(=O)c1cc(O)c(O)cc1O` in this assay?
Response given: inactive

====

method: qHTS of pediatric cancer cell lines to identify multiple opportunities for drug repurposing: Confirmatory screen for Rh30 cells (AID 1347126); note: nearly all actives have a fitted effect of over 55% in size; note: potency is the fitted concentration of half-maximal effect
experimental.parameters: Rh30 rhabdomyosarcoma cell viability; series mostly up to 45.9 µM
Records with an inconclusive call do not appear. Active and inactive are the calls of the source. Calls come from the whole dose curve; as a rule, active = well fitted cell-killing curve with a large enough effect; inconclusive = small, poorly fitted or top-dose-only effect, or effect the other way; inactive = no such curve, though single readings can be large or run the other way.
assay.readout: Potency

Cc1cc(OCCOCC[N+](C)(C)Cc2ccccc2)ccc1C(C)(C)CC(C)(C)C    13.1 µM (active)
CCCCC(CC)CNC(=O)CC(C)OC(=O)CCC(=O)O (stereo not given)    inactive
Cc1ccc(C(=O)Oc2ccc(C(O)CNC(C)(C)C)cc2OC(=O)c2ccc(C)cc2)cc1 (stereo not given)    inactive
CCCC(=O)O[C@]1(C(=O)CCl)[C@@H](C)C[C@H]2[C@@H]3CCC4=CC(=O)C=C[C@]4(C)[C@@]3(F)C(=O)C[C@@]21C    inactive

Now let's try a different one.
Challenge: Name the recorded Potency for `CCc1cc2cc(OC)c(OC)cc2c(Cc2ccccc2)n1` .
Response given: inactive

These entries and their values trace back to PubChem BioAssay (NCATS).
